Tested on: Botrytis cinerea
ASSAY METHOD TEXT: Antifungal activity against Botryotinia fuckeliana assessed as inhibition of mycelial growth at 200 ppm at 21 +/- 1 degC measured after 3 days
Format: functional
CONDITION LABEL: 72 h, read-out: GI
REPORTED ENDPOINT: inhibition of growth at 200 ppm (%)
# value in %; strip the unit string

Prompt: What inhibition of growth at 200 ppm value was documented for this molecule, Oc1ccc(C(=S)Nc2cc(C(F)(F)F)cc(C(F)(F)F)c2)c(O)c1 ?
Response: 81

Prompt: What inhibition of growth at 200 ppm value was documented for this molecule, CC12CC1(C)C(=O)N(c1cc(Cl)cc(Cl)c1)C2=O (centres undefined) ?
Response: 81

Prompt: What inhibition of growth at 200 ppm value was documented for this molecule, Oc1ccc(C(=S)N(Cc2ccccc2)c2ccccn2)c(O)c1 ?
Response: 51

Prompt: What inhibition of growth at 200 ppm value was documented for this molecule, Cc1cc(NC(=S)c2ccc(O)cc2O)ccc1N1C(=O)c2ccc(Cl)cc2C1=O ?
Response: 0

Prompt: What inhibition of growth at 200 ppm value was documented for this molecule, CCN(C(=S)c1ccc(O)cc1O)c1cccc2ccccc12 ?
Response: 0

Prompt: What inhibition of growth at 200 ppm value was documented for this molecule, Oc1ccc(C(=S)Nc2ccccc2-n2cccc2)c(O)c1 ?
Response: 81

Prompt: What inhibition of growth at 200 ppm value was documented for this molecule, C=C(C)c1ccccc1NC(=S)c1ccc(O)cc1O ?
Response: 81

Prompt: What inhibition of growth at 200 ppm value was documented for this molecule, Cc1ccc2sc(-c3ccc(NC(=S)c4ccc(O)cc4O)cc3)nc2c1 ?
Response: 0

Prompt: What inhibition of growth at 200 ppm value was documented for this molecule, COc1ccc(NC(=S)c2ccc(O)cc2O)cc1O ?
Response: 51

====

logP overview
ASSAY METHOD TEXT: Octanol-water partition coefficient, log P of the compound
Type: physicochemical
// no unit string in output, number only

Examples from the recorded data:
* COc1ccc(NC(=S)c2ccc(O)cc2O)cc1O | 2.39
* O=[N+]([O-])c1cc(NC(=S)c2ccc(O)cc2O)ccc1F | 3.43
* Oc1ccc(C(=S)N(Cc2ccccc2)c2ccccn2)c(O)c1 | 4.56
* O=C(c1ccccc1)c1ccc(NC(=S)c2ccc(O)cc2O)cc1 | 4.12
* Cc1cc(NC(=S)c2ccc(O)cc2O)ccc1N1C(=O)c2ccc(Cl)cc2C1=O | 4.57

Moving on to another compound below.
Prompt: What logP value was documented for this compound, Cc1ccc2sc(-c3ccc(NC(=S)c4ccc(O)cc4O)cc3)nc2c1 ?
Response: 3.89

====

inhibition of growth at 200 ppm overview
System: Phytophthora cactorum
ASSAY METHOD TEXT: Antifungal activity against Phytophthora cactorum assessed as inhibition of mycelial growth at 200 ppm at 21 +/- 1 degC measured after 5 days
Format: functional
CONDITION LABEL: 120 h, read-out: GI
# value in %; strip the unit string

Examples from the recorded data:
* Oc1ccc(C(=S)Nc2ccc(N3CCOCC3)cc2)c(O)c1 | 21
* COC(=O)Nc1nc2ccccc2[nH]1 [CARBENDAZIM] | 81
* Oc1ccc(C(=S)Nc2nc(=S)ss2)c(O)c1 | 81

Prompt: Value wanted: inhibition of growth at 200 ppm (Phytophthora cactorum) of entry Oc1ccc(C(=S)Nc2ccccc2-n2cccc2)c(O)c1
Response: 81

Prompt: Value wanted: inhibition of growth at 200 ppm (Phytophthora cactorum) of entry C=C(C)c1ccccc1NC(=S)c1ccc(O)cc1O
Response: 81

Prompt: Value wanted: inhibition of growth at 200 ppm (Phytophthora cactorum) of entry COc1ccc(NC(=S)c2ccc(O)cc2O)cc1O
Response: 21

====

ASSAY METHOD TEXT: Lipophilicity, log K of the compound in water
Assay type: physicochemical
CONDITION LABEL: buffer
REPORTED ENDPOINT: logKw

Examples from the recorded data:
* C=C(C)c1ccccc1NC(=S)c1ccc(O)cc1O | 4.55
* Oc1ccc(C(=S)N(c2ccccc2)c2nnns2)c(O)c1 | 3.3
* COc1ccc(NC(=S)c2ccc(O)cc2O)cc1O | 2.52

Prompt: What logKw value was documented for this molecule, Cc1cc(NC(=S)c2ccc(O)cc2O)ccc1N1C(=O)c2ccc(Cl)cc2C1=O ?
Response: 3.63

Prompt: What logKw value was documented for this molecule, O=C(c1ccccc1)c1ccc(NC(=S)c2ccc(O)cc2O)cc1 ?
Response: 4.28

Prompt: What logKw value was documented for this molecule, Oc1ccc(C(=S)Nc2cccc3c2CCCC3)c(O)c1 ?
Response: 3.56

====

Test system: Botrytis cinerea
ASSAY METHOD TEXT: Antifungal activity against Botryotinia fuckeliana assessed as inhibition of mycelial growth at 200 ppm at 21 +/- 1 degC measured after 3 days
Format: functional
CONDITION LABEL: 72 h, read-out: GI
inhibition of growth at 200 ppm overview
# value in %; strip the unit string

Examples from the recorded data:
• Oc1ccc(C(=S)Nc2cccc3c2CCCC3)c(O)c1 = 81
• O=[N+]([O-])c1cc(NC(=S)c2ccc(O)cc2O)ccc1F = 81
• Oc1ccc(C(=S)N(c2ccccc2)c2nnns2)c(O)c1 = 81
• Oc1ccc(C(=S)Nc2ccc(N3CCOCC3)cc2)c(O)c1 = 21

Prompt: What inhibition of growth at 200 ppm value was documented for this molecule, O=C(c1ccccc1)c1ccc(NC(=S)c2ccc(O)cc2O)cc1 ?
Response: 51

Prompt: What inhibition of growth at 200 ppm value was documented for this molecule, Oc1ccc(C(=S)Nc2nc(=S)ss2)c(O)c1 ?
Response: 81

====

System: Fusarium culmorum
ASSAY METHOD TEXT: Antifungal activity against Fusarium culmorum assessed as inhibition of mycelial growth at 200 ppm at 21 +/- 1 degC measured after 5 days
Type: functional
CONDITION LABEL: 120 h, read-out: GI
inhibition of growth at 200 ppm overview
# value in %; strip the unit string

Examples from the recorded data:
* CCN(C(=S)c1ccc(O)cc1O)c1cccc2ccccc12 | 21
* COc1ccc(NC(=S)c2ccc(O)cc2O)cc1O | 51
* Oc1ccc(C(=S)Nc2nc(=S)ss2)c(O)c1 | 81
* Oc1ccc(C(=S)Nc2ccccc2-n2cccc2)c(O)c1 | 81

Moving on to another molecule below.
Prompt: What inhibition of growth at 200 ppm value was documented for this molecule, Oc1ccc(C(=S)N(c2ccccc2)c2nnns2)c(O)c1 ?
Response: 81

====

ASSAY METHOD TEXT: Lipophilicity, log K of the compound in water
Type: physicochemical
CONDITION LABEL: buffer
REPORTED ENDPOINT: logKw
// no unit string in output, number only

Examples from the recorded data:
• Oc1ccc(C(=S)Nc2cc(C(F)(F)F)cc(C(F)(F)F)c2)c(O)c1 = 6.06
• Oc1ccc(C(=S)Nc2ccc(N3CCOCC3)cc2)c(O)c1 = 2.49
• CCN(C(=S)c1ccc(O)cc1O)c1cccc2ccccc12 = 5.09
• Oc1ccc(C(=S)Nc2ccccc2-n2cccc2)c(O)c1 = 3.59
• Cc1ccc2sc(-c3ccc(NC(=S)c4ccc(O)cc4O)cc3)nc2c1 = 4.87

Prompt: What logKw value was documented for this compound, Oc1ccc(C(=S)N(Cc2ccccc2)c2ccccn2)c(O)c1 ?
Response: 3.96

Prompt: What logKw value was documented for this compound, Oc1ccc(C(=S)Nc2nc(=S)ss2)c(O)c1 ?
Response: 2.99

Prompt: What logKw value was documented for this compound, O=[N+]([O-])c1cc(NC(=S)c2ccc(O)cc2O)ccc1F ?
Response: 3.96

====

Tested on: Alternaria alternata
ASSAY METHOD TEXT: Antifungal activity against Alternaria alternata assessed as inhibition of mycelial growth at 20 ppm at 21 +/- 1 degC measured after 5 days
Assay type: functional
CONDITION LABEL: 120 h, read-out: GI
inhibition of growth at 20 ppm overview
# value in %; strip the unit string

• Oc1ccc(C(=S)Nc2ccc(N3CCOCC3)cc2)c(O)c1 = 0
• Oc1ccc(C(=S)Nc2cc(C(F)(F)F)cc(C(F)(F)F)c2)c(O)c1 = 51
• Cc1ccc2sc(-c3ccc(NC(=S)c4ccc(O)cc4O)cc3)nc2c1 = 0
• Oc1ccc(C(=S)Nc2nc(=S)ss2)c(O)c1 = 21
• CC12CC1(C)C(=O)N(c1cc(Cl)cc(Cl)c1)C2=O (stereo unspecified) = 81

Prompt: Value wanted: inhibition of growth at 20 ppm (Alternaria alternata) of entry Oc1ccc(C(=S)N(c2ccccc2)c2nnns2)c(O)c1
Response: 51

====

System: Alternaria alternata
ASSAY METHOD TEXT: Antifungal activity against Alternaria alternata assessed as inhibition of mycelial growth at 20 ppm at 21 +/- 1 degC measured after 5 days
Type: functional
CONDITION LABEL: 120 h, read-out: GI
inhibition of growth at 20 ppm overview
# value in %; strip the unit string

• O=[N+]([O-])c1cc(NC(=S)c2ccc(O)cc2O)ccc1F = 21
• O=C(c1ccccc1)c1ccc(NC(=S)c2ccc(O)cc2O)cc1 = 0

Prompt: What inhibition of growth at 20 ppm value was documented for this molecule, Oc1ccc(C(=S)Nc2cccc3c2CCCC3)c(O)c1 ?
Response: 51

Prompt: What inhibition of growth at 20 ppm value was documented for this molecule, Oc1ccc(C(=S)Nc2ccccc2-n2cccc2)c(O)c1 ?
Response: 21

Prompt: What inhibition of growth at 20 ppm value was documented for this molecule, C=C(C)c1ccccc1NC(=S)c1ccc(O)cc1O ?
Response: 51
